Hello, the source for this data is the supplement of paper PMC9170038, in case you need it.

# Tested on: MS2 coat protein
# experimentDescription: apparent KD of MS2 coat protein; higher = weaker reporter binding
# conditionsUsed: Eterna round: R107; input ligand: theophylline 2 mM
apparent KD of MS2 coat protein vs 0.3 µM: at or above is true, below is false.

For orientation, consider the following solved cases.
Ask: Quick check: does AGCGACAUGCGUGAUACCAGCUACAUGAGGAUCACCCAUGUCAGCAGGGAACUGCUGUGUAGCCCUUGGCAGCACAGUGCAUGUC [Exclusion - Theophylline B (Freestyle 29)] have apparent KD of MS2 coat protein greater than or equal to 0.3 µM?
Reply: false

Ask: Answer whether apparent KD of MS2 coat protein of AGCAACAAGUCGGCCGCCACUCAAUAAACAUGAGGAUCACCCAUGUAAAUAACAUGAUAAUAAUAGAGGACCGGGACAGUUGCAU [JR_SSTryptoB_Sub015] is greater than or equal to 0.3 µM.
Reply: false

Ask: Entry UCUACAUGAGGAUCACCCAUGUGCCAUGAUACCAGACAUGAAAAUGUCCCUUGGCAGCGUGGGUAGCGCAUCCGAAAGGAUGCGC [#08 SameState-TheophyllineA] : is its apparent KD of MS2 coat protein no less than 0.3 µM?
Reply: true

Kindly review the next sequence as well.
Ask: Has CGGGCCGCUGCGGAUACCAGUUGAGCAUAGGUAGUGUAUGACAUGAGGAUCACCCAUGUUAACCCUUGGCAGCCGAGAGGGCAGA [theeternabot_exclusion_MS2_Theo_B_13] a recorded apparent KD of MS2 coat protein greater than or equal to 0.3 µM?
Reply: false

----------
# Tested on: K4 kissing-loop RNA reporter;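 note: bound reporter read as fluorescence of individual clusters on recovered sequencing chips by microscopy, with normalized cluster intensities fitted with a binding model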
# experimentDescription: apparent KD of K4 kissing-loop reporter; higher = weaker reporter binding
# conditionsUsed: Eterna round: R107; input ligand: none
measuredQuantity: apparent KD of K4 kissing-loop reporter
Don't forget the unit after the value.

Ask: Returns the measured apparent KD of K4 kissing-loop reporter for the input sequence. Input: UCCUGCAAUCGGCCACGAAAGUGGAUGGAUACCAGAGUCGAAAGACUCCCUUGGCAGCCAGUGAUGUUGGAAGCAGGUAAAUAAA
Reply: 0.47 µM

Ask: What value of measured apparent KD of K4 kissing-loop reporter is listed for ACGUAUAUCAGAGGAUAUCGUAUUAAUAUUUUAUCUAUAUAUUAUAGCAGUGAUGUUGCAAUUAUUCGAGAAGGCUGAUUUACGA [JR_SSFMNB_Sub023] ?
Reply: 0.139 µM

Ask: Name the recorded apparent KD of K4 kissing-loop reporter for AAACAUUGGUCGGAUACCAGCUUGAUCGGAAAACGAUCUGCUGGAGUGAUGUUCCAAUAAAGCCCUUGGCAGCCGACCGAUGAAA [MAT - Same State Theophlline B - Mod of Eli - D14] .
Reply: 1.07 µM

Ask: Could you tell me which apparent KD of K4 kissing-loop reporter is on file for UUUAAACAUAGUGAUGUUAUGUAACAAUGACGAGGACCGGUACGGCCGCCACUCGAGAGAGAUGAUGGUAAAAUAAAUAAUUUUC [#10 K4 Tryptophan A Same State] ?
Reply: 0.107 µM

Ask: Which measured apparent KD of K4 kissing-loop reporter value corresponds to GCAGACACGCAGUGAUGUUGCGAAACGGAAGGAGCGCGUGAAAACGCAGGUAGGUCGCCGAAACAUAAAUUAUAAUUUUGUUUGC [Arginine A K4 13] ?
Reply: 0.221 µM

Ask: GET /values?readout=apparent KD of K4 kissing-loop reporter&item= AGUUCCUCUGUCGAUACCAGCUUCAGUUGGCGGCCAGUGAUGUUGGUAUCGCCGAUGCCAAGCCCUUGGCAGCGACAUGAGACCC [Lausso]
Reply: 0.169 µM
